Data provenance is ChEMBL document CHEMBL3885861.

Species: Rattus norvegicus
ASSAY TEXT: Open TG-GATES - Regimen: Daily Repeat
Format: toxicity, organism-based, Sprague-Dawley
Set-up: regimen Daily Repeat, gender Male, age 6 weeks
TEST CONTEXT: in vivo, po, 1000 mg/kg, […], tissue Plasma, route gavage, dose level High, time 14 day
OUTCOME MEASURE: TG (mg/dL)
Numbers only, in mg/dL.

Use the examples below as a reference point.
stdin: Indicate the recorded TG value for this compound: O=C(N[C@H](CO)[C@H](O)c1ccc([N+](=O)[O-])cc1)C(Cl)Cl [CHLORAMPHENICOL]
stdout: 79.2

stdin: Could you please provide reported TG for O=C(O)c1cccnc1 [NIACIN] ? Thanks!
stdout: 163.6

stdin: Please give measured TG of the following entry: CC(C)(S)[C@@H](N)C(=O)O [PENICILLAMINE]
stdout: 43.8

As a next step, examine the compound that follows.
stdin: Name the recorded TG of the item CCN1CCCC1CNC(=O)c1cc(S(N)(=O)=O)ccc1OC (centres undefined) [SULPIRIDE] in your answer.
stdout: 83.4
